Catalogue of max response values
test: qHTS Assay for Lipid Storage Modulators (AID 1519); conditions: Drosophila S3 cells, BODIPY lipid droplet/cell ratio, laser cytometry; measured here: cell count channel max response; cells loaded with oleic acid
Records with an inconclusive call do not appear.
Please reply with the bare figure in % and do not write the unit itself.

For orientation, consider the following solved cases.
>>> value("O=S(=O)(c1ccccc1)N1CCC[C@@]2(CCN(Cc3cc(C(F)(F)F)cc(C(F)(F)F)c3)C2)C1")
17.1
>>> value("CN(C)c1ccc(-c2cc(NCc3cccnc3)ncn2)cc1")
14.7
>>> value("CN(Cc1cnc2nc(N)nc(N)c2n1)c1ccc(C(=O)N[C@H](CCC(=O)O)C(=O)O)cc1")
-1.52
>>> value("COc1ccccc1CNc1ccnc(-c2ccccc2C(F)(F)F)n1")
-3.33
>>> value("N#Cc1cccc(NC(=O)N2CC3(CCN(C(=O)c4cc(C(F)(F)F)cc(C(F)(F)F)c4)CC3)C2)c1")
14

Recorded result, COCCNc1ncnc2ccc(-c3ccccc3C(F)(F)F)cc12 , max response: -4.06

Recorded result, O=C(c1ccco1)N1CCC2(CC1)CCN(c1ccncc1)CC2 , max response: -3.62

Recorded result, COc1ccccc1CN1CCC2(CC1)CCN(C(=O)c1csnn1)CC2 , max response: 16.4

Recorded result, Clc1cccc2c1CN(C1=NCCN1)C2 , max response: 12.9

Recorded result, CN1CCN(c2ncc3nc(-c4ccc(Cl)cc4)c(=O)n(Cc4ccc(F)cc4)c3n2)CC1 , max response: 15.9

Recorded result, COc1ccc(C(=O)N2CCC3(CCN(Cc4ccc(C#N)cc4)CC3)CC2)cc1 , max response: 16.6
